- Test system: greenhouse red spider mite (Tetranychus urticae)
- assay-info: Tetranychus urticae spray test, OP-resistant (bean leaf discs)
- Type: in vivo
- measurement-parameters: application rate 500 g/ha, after 6 days
measured-property: efficacy (spider mites killed) (%)

{"columns": ["compound", "measured-property", "value"],
 "data": [
  ["Cc1cc(C)c([S+]([O-])CC(F)(F)F)cc1-n1ncc(=O)n(C(C)C)c1=O (racemic)", "efficacy (spider mites killed)", 100],
  ["CCn1c(=O)cnn(-c2cc(SCC(F)(F)F)c(C)cc2F)c1=O", "efficacy (spider mites killed)", 100],
  ["Cn1c(=O)cnn(-c2cc([S+]([O-])CC(F)(F)F)c(Cl)cc2Cl)c1=O (racemic)", "efficacy (spider mites killed)", 90],
  ["Cc1ccc(-n2ccc(=O)n(CC(F)(F)F)c2=O)cc1[S+]([O-])CC(F)(F)F (centres unmarked)", "efficacy (spider mites killed)", 100],
  ["Cc1cc(C)c(-n2ncc(=O)n(CC3CC3)c2=O)cc1SCC(F)(F)F", "efficacy (spider mites killed)", 100],
  ["Cc1cc(F)c(-n2ccc(=O)n(CC(F)F)c2=O)cc1[S+]([O-])CC(F)(F)F (centres unmarked)", "efficacy (spider mites killed)", 90],
  ["Cc1cc(C)c(-n2ncc(=O)n(CC(C)C)c2=O)cc1SCC(F)(F)F", "efficacy (spider mites killed)", 90],
  ["Cc1cc(C)c(-n2ncc(=O)n(CC(F)(F)F)c2=O)cc1SCC(F)(F)F", "efficacy (spider mites killed)", 90]
]}

---

- Test system: larvae of the mustard beetle (Phaedon cochleariae)
- assay-info: Phaedon cochleariae spray test
- Format: in vivo
- measurement-parameters: application rate 500 g/ha, after 7 days
Reported efficacy (beetle larvae killed) by item:

{"columns": ["compound", "value-units", "efficacy (beetle larvae killed)"],
 "data": [
  ["Cc1cc(F)c(-n2ccc(=O)n(CC(F)(F)F)c2=O)cc1[S+]([O-])CC(F)(F)F (racemic)", "%", 100],
  ["Cc1cc(F)c(-n2ncc(=O)n(CC3CC3)c2=O)cc1SCC(F)(F)F", "%", 100],
  ["Cc1cc(F)c(-n2ncc(=O)n(CC3CC3)c2=O)cc1[S+]([O-])CC(F)(F)F (racemic)", "%", 100],
  ["C#CCn1c(=O)ccn(-c2cc(SCC(F)(F)F)c(C)cc2F)c1=O", "%", 100],
  ["Cc1cc(F)c(-n2ncc(=O)n(CC(F)(F)F)c2=O)cc1SCC(F)(F)F", "%", 83]
]}

---

Each entry below carries its recorded chromatographic logP.
- assay-info: log P by reversed-phase HPLC analogously to OECD Guideline 117
- Assay type: physicochemical
- measurement-parameters: reversed-phase C18 HPLC column, pH 2.7, table column; [a] acidic range, pH 2.7, formic acid (or trifluoroacetic acid)/acetonitrile; read-out: LogP[a]
measured-property: chromatographic logP

{"columns": ["compound", "value"],
 "data": [
  ["Cc1ccc(-n2ccc(=O)n(C)c2=O)cc1SCC(F)(F)F", 2.39],
  ["CCn1c(=O)ccn(-c2cc([S+]([O-])CC(F)(F)F)c(C)cc2F)c1=O (stereo not drawn)", 1.88],
  ["Cc1cc(F)c(-n2ccc(=O)[nH]c2=O)cc1SCC(F)(F)F", 2.06],
  ["CCn1c(=O)ccn(-c2cc(SCC(F)(F)F)c(C)cc2F)c1=O", 2.86],
  ["Cc1cc(F)c(-n2ncc(=O)n(C)c2=O)cc1SCC(F)(F)F", 2.94],
  ["Cc1cc(F)c(-n2c(C)c(C#N)c(=O)[nH]c2=O)cc1[S+]([O-])CC(F)(F)F (stereo not drawn)", 1.58],
  ["Cc1cc(F)c(-n2ccc(=O)[nH]c2=O)cc1[S+]([O-])CC(F)(F)F (stereo not drawn)", 1.24],
  ["Cc1cc(F)c(-n2ccc(=O)n(C)c2=O)cc1SCC(F)(F)F", 2.53],
  ["Cc1cc(F)c(-n2ncc(=O)n(C)c2=O)cc1[S+]([O-])CC(F)(F)F (single isomer, unassigned; (-)) [Ex. No. 28]", 1.95],
  ["Cc1ccc(-n2ccc(=O)n(C)c2=O)cc1[S+]([O-])CC(F)(F)F (stereo not drawn)", 1.49],
  ["Cc1cc(F)c(-n2c(C)c(C#N)c(=O)[nH]c2=O)cc1SCC(F)(F)F", 2.43],
  ["Cc1cc(F)c(-n2ccc(=O)n(C)c2=O)cc1[S+]([O-])CC(F)(F)F (stereo not drawn)", 1.61],
  ["Cc1cc(F)c(-n2ncc(=O)[nH]c2=O)cc1[S+]([O-])CC(F)(F)F (stereo not drawn)", 1.58],
  ["Cc1cc(F)c(-n2ncc(=O)n(C)c2=O)cc1[S+]([O-])CC(F)(F)F (stereo not drawn) [Ex. No. 2]", 1.94],
  ["CCc1cc(CC)c([S+]([O-])CC(F)(F)F)cc1-n1c(C)c(C#N)c(=O)[nH]c1=O (stereo not drawn)", 2.15]
]}

---

- assay-info: log P by reversed-phase HPLC analogously to OECD Guideline 117
- Format: physicochemical
- measurement-parameters: [a] acidic range, pH 2.7, formic acid (or trifluoroacetic acid)/acetonitrile
- Experimental: The log P values were determined analogously to OECD Guideline 117 (EC Directive 92/69/EEC) by HPLC (high-performance liquid chromatography) using reversed-phase columns (C 18), by the following methods: [a] […] Calibration is effected with solutions of a homologous series of unbranched alkan-2-ones (having 3 to 16 carbon atoms) with known log P values (log P values determined on the basis of the retention times by linear interpolation between two successive alkanones).
Attribute: LogP[a]

{"columns": ["compound", "LogP[a]"],
 "data": [
  ["Cc1cc(F)c(-n2ccc(=O)n(CC3CC3)c2=O)cc1[S+]([O-])CC(F)(F)F (racemic)", 2.29],
  ["Cc1cc(C)c([S+]([O-])CC(F)(F)F)cc1-n1ncc(=O)n(C(C)C)c1=O (racemic)", 2.69],
  ["Cc1cc(F)c(-n2ncc(=O)n(C(C)C)c2=O)cc1SCC(F)(F)F", 3.73],
  ["Cc1cc(C)c([S+]([O-])CC(F)(F)F)cc1-n1ccc(=O)n(CC(F)(F)F)c1=O (centres unmarked)", 2.40],
  ["Cc1cc(C)c([S+]([O-])CC(F)(F)F)cc1-n1ncc(=O)n(Cc2ccccc2)c1=O (racemic)", 3.06],
  ["Cc1cc(C)c(-n2ccc(=O)n(C)c2=O)cc1SCC(F)(F)F", 2.66],
  ["Cc1cc(C)c(-n2ncc(=O)n(CC#N)c2=O)cc1SCC(F)(F)F", 3.1],
  ["CCn1c(=O)cnn(-c2cc([S+]([O-])CC(F)(F)F)c(C)cc2C)c1=O (racemic)", 2.31],
  ["Cn1c(=O)cnn(-c2cc(SCC(F)(F)F)c(Cl)cc2Cl)c1=O", 3.31],
  ["Cc1ccc(-n2ncc(=O)n(C)c2=O)cc1SCC(F)(F)F", 2.9],
  ["Cc1ccc(-n2ccc(=O)n(C(C)C)c2=O)cc1SCC(F)(F)F", 3.18],
  ["CCCn1c(=O)ccn(-c2cc(SCC(F)(F)F)c(C)cc2F)c1=O", 3.13],
  ["Cc1cc(C)c([S+]([O-])CC(F)(F)F)cc1-n1ncc(=O)n(CC(F)(F)F)c1=O (single isomer, unassigned) [compound 46]", 2.72],
  ["Cc1cc(C)c([S+]([O-])CC(F)(F)F)cc1-n1ccc(=O)n(C)c1=O (centres unmarked)", 1.68]
]}

---

- assay-info: log P by reversed-phase HPLC analogously to OECD Guideline 117
- Format: physicochemical
- measurement-parameters: reversed-phase C18 HPLC column, pH 2.7, running text; [a] acidic range, pH 2.7; read-out: log P[a]
The molecules listed here are annotated with their chromatographic logP.

{"columns": ["molecule", "chromatographic logP"],
 "data": [
  ["Cc1cc(F)c(-n2ccc(=O)n(C)c2=O)cc1[S+]([O-])CC(F)(F)F (centres unmarked)", 1.66],
  ["Cc1cc(F)c(-n2ccc(=O)n(C)c2=O)cc1SCC(F)(F)F", 2.59],
  ["Cc1cc(F)c(-n2ncc(=O)n(C)c2=O)cc1SCC(F)(F)F", 2.94],
  ["Cc1cc(F)c(-n2ncc(=O)n(C)c2=O)cc1[S+]([O-])CC(F)(F)F (centres unmarked)", 1.94],
  ["Cc1ccc(-n2ccc(=O)n(C)c2=O)cc1[S+]([O-])CC(F)(F)F (centres unmarked)", 1.5],
  ["CCc1cc(CC)c([S+]([O-])CC(F)(F)F)cc1-n1c(C)c(C#N)c(=O)[nH]c1=O (centres unmarked)", 2.15],
  ["Cc1cc(F)c(-n2ncc(=O)[nH]c2=O)cc1SCC(F)(F)F", 2.45],
  ["CCn1c(=O)ccn(-c2cc([S+]([O-])CC(F)(F)F)c(C)cc2F)c1=O (centres unmarked)", 1.94]
]}
